Assay: chemical genetic growth profiling, strain panel (AID 1159580);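 also: tested at 20 µM; growth read once vehicle control cultures reached saturation at 30 °C; 1 = growth at the plate median or of vehicle wells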
Settings: S. cerevisiae deletion strains, growth OD, locus YMR125W, strain sto1
The whole screen tested about 5,500 compounds, of which about 2,000 (36%) were called active. Another 18% or so got no clear call; they are omitted. Rule as the data show it: active = normalized growth mostly below about 0.91 (no sharp cut-off); inconclusive = no clear call, values can overlap the other calls; inactive = mostly above about 0.92. Some of the results follow.
One label from this list, please: yes (active), no (inactive)

Molecule	Qualitative Label
COc1ccc2cc1Oc1ccc(cc1)C[C@H]1c3c(cc4c(c3Oc3cc5c(cc3OC)CCN(C)[C@@H]5C2)OCO4)CCN1C	no
CCCCOc1ccc(OCCCN2CCOCC2)cc1	no
O=c1ccc2ccccc2o1	no
O=c1ccc2cc(O)c(O)cc2o1	no
CCCCOc1ccc(CC(=O)NO)cc1	no
CCOC(=O)c1ncn2c1CN(C)C(=O)c1cc(F)ccc1-2	no
O=C1C[C@@H](c2ccc(O)cc2)Oc2cc(O)cc(O)c21	no
CCCCCCCCCCCCC[N+](C)(C)Cc1ccccc1	yes
O=C1CC(c2ccc(O)c(O)c2)Oc2cc(O)cc(O)c21 (stereo not drawn)	no
COc1ccc(C[C@H]2NC[C@H](O)[C@H]2OC(C)=O)cc1	yes

Q. Per the assay record, what outcome was assigned to c1ccc(CC2=NCCN2)cc1 ?
A. no

Q. Could you please tell me the result logged for O=C(O)C1CC([C@@H]2CCCCN2)CN2CCCCC12 (stereo partly drawn) in this assay?
A. no

Q. Tell me the assay call for Cc1cc(=O)c2c(O)c(C)c(O)cc2o1 please.
A. no

----------
Assay: chemical genetic growth profiling, strain panel (AID 1159580)
Settings: S. cerevisiae deletion strains, growth OD, locus YNL067W, strain RPL9B, stronger effect = lower value
Out of some 5,500 compounds screened, about 2,000 (36%) were called active. Inconclusive results (about 18%) are left out. Some of the results follow.
Attribute Measured: normalized growth
I only need the number, thanks.

Example molecules with recorded normalized growth:
Molecule	Result Value
COc1cccc2c1CCC1CC(=O)CCC21C (configuration not stated)	0.968
COc1ccc2c(c1)C1(C)CCC(=O)CC1CC2 (configuration not stated)	0.974

normalized growth reported for this molecule Cc1cc(=O)c2c(O)c(C)c(O)cc2o1 : 0.971

Quick note, normalized growth for CC1(C)C2CC[C@]3(C)C(C(=O)C=C4[C@@H]5C[C@@](C)(C(=O)O)CC[C@]5(C)CC[C@]43C)[C@@]2(C)CC[C@@H]1O (some centres not stated) landed at 0.987

// sample COc1ccc([C@@H]2CC(=O)c3c(O)cc(O)cc3O2)cc1O , its normalized growth was 1.03

----------
Assay: chemical genetic growth profiling, strain panel (AID 1159580)
Conditions: S. cerevisiae deletion strains, growth OD, locus YLR039C, strain RIC1, stronger effect = lower value
In all, about 5,500 compounds went through this assay and about 2,000 (36%) were called active. Not shown: some 18% with an inconclusive outcome. The list shows a part of the results.
Please use 1 (yes) for normalized growth under 0.9 and 0 (no) for everything else, ties included.

> print(dat)
                                   compound  qualitative.label
1      FC(F)(F)c1ccnc(-n2ccc(-c3cccs3)n2)n1            1 (yes)
2  COc1cc(OC)c2c(c1)OC(c1ccc(OC)c(OC)c1)C(O)C2 (stereo unspecified)             0 (no)
3  CNC1(C)C2CCC(C2)C1(C)C (stereo unspecified)             0 (no)
4  O=C(O)C1CC([C@@H]2CCCCN2)CN2CCCCC12 (stereo partly specified)             0 (no)
5  C=C1CC[C@H](O)C/C1=C/C=C1\CCC[C@]2(C)C([C@H](C)/C=C/[C@H](C)C(C)C)CC[C@@H]12 (stereo partly specified)            1 (yes)

Q. Lab note: normalized growth threshold 0.9. Does this compound come in strictly under it? CC12CCC(C1)C(C)(C)C2NC(=O)c1cccs1 (stereo unspecified)
A. 0 (no)

Q. Field: below-cutoff. Rule: recorded normalized growth strictly less than 0.9. Subject: Cc1cc(C)c(NC(=S)NCCCN2CCOCC2)c(C)c1
A. 0 (no)

----------
Test: chemical genetic growth profiling, strain panel (AID 1159580);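 also: tested at 20 µM; growth read once vehicle control cultures reached saturation at 30 °C; 1 = growth at the plate median or of vehicle wells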
Settings: S. cerevisiae deletion strains, growth OD, locus YFR010W, strain ubp6
The whole screen tested about 5,500 compounds, of which about 2,000 (36%) were called active. Inconclusive results (about 18%) are left out. Cut-off read from the data, not from the text of the source: active = normalized growth mostly below about 0.91 (no sharp cut-off); inconclusive = no clear call, values can overlap the other calls; inactive = mostly above about 0.92. The list shows a part of the results.
Result category, one only: yes = active, no = inactive

Answered examples (2):
> print(dat)
                                   compound  qualitative.label
1                CCN(CC)C(=S)SSC(=S)N(CC)CC                yes
2  COc1c(O)cc2oc3cc(O)c(CC=C(C)C)c(O)c3c(=O)c2c1CC=C(C)C                 no

Q. Please indicate how the test categorized O=c1ccc2cc(O)c(O)cc2o1 .
A. no

Q. Which result was noted for this compound in the test: CCC(C(=O)O)c1ccccc1 (configuration not stated)
A. no

Q. Give the logged outcome of this assay for the following compound: O=c1ccc2ccccc2o1
A. no

----------
Test: chemical genetic growth profiling, strain panel (AID 1159580);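 also: tested at 20 µM; growth read once vehicle control cultures reached saturation at 30 °C; 1 = growth at the plate median or of vehicle wells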
Conditions: S. cerevisiae deletion strains, growth OD, locus YCL029C, strain bik1, stronger effect = lower value
Out of some 5,500 compounds screened, about 2,000 (36%) were called active. Roughly 18% stayed inconclusive and do not appear here. The list shows a part of the results.
Attribute Measured: normalized growth

Examples from the recorded data:
Compound	normalized growth
COc1c(O)cc2oc3cc(O)c(CC=C(C)C)c(O)c3c(=O)c2c1CC=C(C)C	0.773 (active)
Cc1cc(=O)c2c(O)cc(O)c(C)c2o1	0.994 (inactive)
c1ccc(CC2=NCCN2)cc1	0.887 (active)
O=C(/C=C/C=C/c1ccc2c(c1)OCO2)N1CCCCC1	0.954 (inactive)

Entry Cc1cc(=O)c2c(O)c(C)c(O)cc2o1 — recorded normalized growth = 0.975 (inactive)

For CC(=O)O[C@@](C)(CCC=C(C)C)C1CC=C(C)CC1 (stereo partly specified) the compound record lists normalized growth as 0.992 (inactive)

Recorded normalized growth (compound CCN(CC)C(=S)SSC(=S)N(CC)CC ): 0.135 (active)

normalized growth reported for this compound C=CC1=C(C(=O)O)N2C(=O)[C@@H](NC(=O)/C(=N/O)c3csc(N)n3)[C@H]2SC1 : 0.987 (inactive)

Reported normalized growth ( CN1Cc2c(ccc3c2OCO3)C2C(O)Cc3cc4c(cc3C21)OCO4 (stereo unspecified) ) = 1.03 (inactive)

Lab note: CC1(C)S[C@@H]2[C@H](NC(=O)[C@H](NC(=O)N3CCNC3=O)c3ccccc3)C(=O)N2C1C(=O)O (stereo partly specified) gave normalized growth of 0.99 (inactive)

Noted for CC1(C)C2CC[C@]3(C)C(C(=O)C=C4[C@H]5C[C@@](C)(C(=O)O)CC[C@]5(C)CC[C@]43C)[C@@]2(C)CC[C@@H]1O (stereo partly specified) : its normalized growth reads 0.962 (inactive)

get_value(item= CC(=O)O[C@]1(C(C)=O)CCC2C3C[C@H](C)C4=CC(=O)CC[C@]4(C)C3CC[C@@]21C (stereo partly specified) , readout=normalized growth) returns 0.957 (inactive)

The compound listed as CC(=O)O[C@H]1C(=O)[C@@]2(C)C([C@H](OC(=O)c3ccccc3)[C@]3(O)C[C@H](OC(=O)[C@H](O)[C@@H](NC(=O)c4ccccc4)c4ccccc4)C(C)=C1C3(C)C)[C@]1(OC(C)=O)CO[C@@H]1C[C@@H]2O (stereo partly specified) shows normalized growth equal to 1.05 (inactive)

----------
Experiment: chemical genetic growth profiling, strain panel (AID 1159580);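 also: tested at 20 µM; growth read once vehicle control cultures reached saturation at 30 °C; 1 = growth at the plate median or of vehicle wells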
Details: S. cerevisiae deletion strains, growth OD, locus YNL222W, strain SSU72
Out of some 5,500 compounds screened, about 2,000 (36%) were called active. Another 18% or so got no clear call; they are omitted. Cut-off read from the data, not from the text of the source: active = normalized growth mostly below about 0.91 (no sharp cut-off); inconclusive = no clear call, values can overlap the other calls; inactive = mostly above about 0.92. The list shows a part of the results.
Mark one answer only. Choices: true (1) = active, false (0) = inactive

Solved entries (count: 5):
> print(dat)
                                   molecule  qualitative.label
1  Cc1oc2c(F)c(F)c(F)c(F)c2c1C(=O)ONC(N)c1ccc(OS(=O)(=O)N(C)C)cc1 (stereo unspecified)          false (0)
2  CC1=CC(=O)C(CCOCCC2=CC(=O)C(C)=CC2=O)=CC1=O          false (0)
3  NCCCN=c1ccc2c3c1c(O)c1c(O)ccc(=O)c1c3[nH]n2CCNCCO          false (0)
4                   C/C(=N/NC(N)=S)c1ccccn1          false (0)
5  C/C(=N/NC(N)=S)c1ccc(Oc2c(Cl)cncc2Cl)cc1          false (0)

Q. Hi, sorry to bother you, what did the test record for Cc1c(Cl)cccc1NC(=S)N1CCCN(c2ccc(C(F)(F)F)cc2[N+](=O)[O-])CC1 ?
A. false (0)

Q. Dear colleague, could you share the recorded outcome for NC(N)=Nc1nc(-c2cc(Cl)sc2Cl)cs1 when you have a moment?
A. false (0)

Q. Status in this test for CC(C)(C)C1=NN(c2nc3ccc(Cl)cc3s2)C(=O)C1 ?
A. true (1)

Q. # outcome recorded in this test, key = CCC(C)c1ccccc1NC(=O)c1cc2cccc([N+](=O)[O-])c2[nH]1 (stereo unspecified)
A. false (0)

Q. Fill in: this test's call for Cc1ccccc1C(=O)N1CCc2c([nH]c3ccccc23)C1C(F)(F)F (stereo unspecified) is ___
A. false (0)

Q. Field: outcome | Entry: O=C(C=C(O)c1ccc(Br)cc1)C(=O)Nc1ccccc1
A. true (1)
